Reported TGI by item:
# Test system: ACHN renal
# assay.explanation: NCI tumour cell line growth inhibition, 48 h

molecule | TGI
C/C=C/C(C#N)O[Si](C)(C)C (stereo unspecified) | > 100 µM
COC(=O)/C(=N\NC(C)(C)C)C(C(=O)OC)C(=O)C(=O)Nc1cc(Cl)ccc1Cl (stereo unspecified) | > 100 µM
O=C(O)c1nc(NCc2nc3cc(Cl)ccc3o2)n[nH]1 | > 100 µM
CC(N=NNc1ccc(-c2nc3ccccc3[nH]2)cc1)C(=O)O (stereo unspecified) | > 100 µM
O=C1CC(CC(=O)C2CCCCC2=O)C(=O)N1 (stereo unspecified) | > 100 µM
CCCN1C(=O)NC(=O)C(CC)(N2C(=O)c3c(F)c(F)c(F)c(F)c3C2=O)C1=O (stereo unspecified) | 3.69 µM
O=C(O)CC(Cc1ccccc1Cl)C(=O)O (stereo unspecified) | > 100 µM
O=[N+]([O-])c1ccccc1N=Nc1c(O)[nH]c2cccc(C(F)(F)F)c12 | 40.1 µM
CCc1c(C#N)c(=O)[nH]c(=O)n1CCN1CCN(C(=O)NCCCCCCNC(=O)N2CCN(CCn3c(CC)c(C#N)c(=O)[nH]c3=O)CC2)CC1 | > 100 µM
CCc1n[nH]c(=O)n1CCCCCCCCCCCCn1c(CC)n[nH]c1=O | > 100 µM
CCC/C(Cl)=N\OC(=O)Nc1ccc(F)cc1 | 24.7 µM
COc1ccc(-c2noc(C(=O)O)c2-c2cc(OC)c(OC)c(OC)c2)cc1 | > 100 µM
CCOC(=O)c1ccc(-n2[nH]nc(C(N)=O)c2=O)cc1 | > 100 µM
CN(C)CCNc1ccc2c(=O)n(CCN(C)C)c(=O)n3c4ccc(O)cc4c(=O)c1c23 | < 0.01 µM
O=c1cc(-c2cccs2)[nH]c2cc3c(cc12)OCO3 | > 100 µM
CN(C)CC(O)c1ccc(Cl)c2ccccc12 (stereo unspecified) | > 100 µM
O=C(Nc1ccc(N2C(=O)CSC2c2ccccc2O)cc1)c1ccc(N2C(=O)CSC2c2ccccc2O)cc1 (stereo unspecified) | > 100 µM
NC(=O)CNC(=O)[C@@H]1CC(OCCC(=O)O)CN1C(=O)C1CCCN1C(=O)OCc1ccccc1 (stereo partly specified) | > 100 µM
COc1ccc2c(c1)C(=O)CC1c3cnccc3C(=O)N21 (stereo unspecified) | > 100 µM
C=CCOC(=O)N1c2ccc(O[Si](C)(C)C(C)(C)C)cc2[C@@]23O[C@@]24[C@@H]1C#C/C=C\C#C[C@]3(O)C(OC)(OC)C[C@@H]4C | > 100 µM
CCOC(=O)Cc1nc2ccc3c(c2[nH]c1=O)C(=O)c1ccccc1C3=O | > 100 µM
